test-system: COX-2 (Homo sapiens)

[
  {
    "compound": "CC(C)=CCC[C@](C)(O)[C@@H]1CC=C(C(=O)O)CC1 [Metabolite 3, Hamanasic acid A]",
    "IC50 (µM)": 6.45
  },
  {
    "compound": "CC1=CCC(C(C)(O)CCC(O)C(C)(C)O)CC1 (stereo not drawn) [Metabolite 2, 10β,11-dihydroxy-α-bisabolol]",
    "IC50 (µM)": 17.3
  },
  {
    "compound": "COC(=O)C1=CCC(C(C)CCC2OC2(C)C)CC1 (stereo not drawn) [Metabolite 5]",
    "IC50 (µM)": 2.51
  },
  {
    "compound": "CC(C)(O)C(O)CCC(C)(O)C1CC=C(CO)CC1 (stereo not drawn) [Metabolite 6, 10β,11,15-trihydroxy-α-bisabolol]",
    "IC50 (µM)": 5.39
  },
  {
    "compound": "CC(C)=CCCC(C)(O)C1CC=C(C)CC1 (stereo not drawn) [α-Bisabolol, (-)-α-bisabolol, reference compound]",
    "IC50 (µM)": 2.92
  },
  {
    "compound": "CC(C)=CCCC(C)(O)C1CCC(C)CC1 (stereo not drawn) [Metabolite 4, 2,3-dihydro-α-bisabolol]",
    "IC50 (µM)": 4.11
  }
]

----------
test-system: COX-2 (Homo sapiens, UniProt P35354)
Construct: purchased Cayman No.547
Sequence (P35354 18-604): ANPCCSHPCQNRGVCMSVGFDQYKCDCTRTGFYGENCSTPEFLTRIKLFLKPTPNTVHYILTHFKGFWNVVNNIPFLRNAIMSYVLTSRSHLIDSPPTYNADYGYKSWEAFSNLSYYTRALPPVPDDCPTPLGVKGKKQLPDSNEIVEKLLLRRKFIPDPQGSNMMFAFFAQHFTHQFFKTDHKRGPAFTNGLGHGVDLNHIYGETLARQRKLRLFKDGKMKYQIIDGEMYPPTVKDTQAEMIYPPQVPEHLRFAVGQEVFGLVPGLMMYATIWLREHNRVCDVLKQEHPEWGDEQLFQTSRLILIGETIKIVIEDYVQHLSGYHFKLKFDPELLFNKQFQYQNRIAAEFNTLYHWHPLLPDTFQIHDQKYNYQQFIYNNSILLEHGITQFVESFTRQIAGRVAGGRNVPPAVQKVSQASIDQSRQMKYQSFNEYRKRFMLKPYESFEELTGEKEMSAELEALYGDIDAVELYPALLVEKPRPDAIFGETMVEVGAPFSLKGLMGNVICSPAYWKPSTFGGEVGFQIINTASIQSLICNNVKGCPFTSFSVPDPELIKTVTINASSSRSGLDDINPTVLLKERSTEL
experiment-notes: In vitro COX-2 enzyme inhibitory assay (Cayman kit)
Format: biochemical
Outcome label depends on COX-2 selective index S.I = IC50 COX-1/IC50 COX-2 relative to 7: at/above gives t, below gives f.

[
  {
    "compound": "CC(C)(O)C(O)CCC(C)(O)C1CC=C(CO)CC1 (stereo not drawn) [Metabolite 6, 10β,11,15-trihydroxy-α-bisabolol]",
    "discrete-label": "t"
  },
  {
    "compound": "COC(=O)C1=CCC(C(C)CCC2OC2(C)C)CC1 (stereo not drawn) [Metabolite 5]",
    "discrete-label": "f"
  },
  {
    "compound": "CC(C)=CCC[C@](C)(O)[C@@H]1CC=C(C(=O)O)CC1 [Metabolite 3, Hamanasic acid A]",
    "discrete-label": "f"
  },
  {
    "compound": "CC1=CCC(C(C)(O)CCC(O)C(C)(C)O)CC1 (stereo not drawn) [Metabolite 2, 10β,11-dihydroxy-α-bisabolol]",
    "discrete-label": "f"
  },
  {
    "compound": "CC(C)=CCCC(C)(O)C1CCC(C)CC1 (stereo not drawn) [Metabolite 4, 2,3-dihydro-α-bisabolol]",
    "discrete-label": "t"
  }
]

----------
Observed IC50 values for COX-1 (Homo sapiens) are listed in what follows.

[
  {
    "molecule": "CC(C)=CCCC(C)(O)C1CC=C(C)CC1 (stereo not drawn) [α-Bisabolol, (-)-α-bisabolol, reference compound]",
    "IC50, µM": 20.1
  },
  {
    "molecule": "CC1=CCC(C(C)(O)CCC(O)C(C)(C)O)CC1 (stereo not drawn) [Metabolite 2, 10β,11-dihydroxy-α-bisabolol]",
    "IC50, µM": 71
  },
  {
    "molecule": "CC(C)(O)C(O)CCC(C)(O)C1CC=C(CO)CC1 (stereo not drawn) [Metabolite 6, 10β,11,15-trihydroxy-α-bisabolol]",
    "IC50, µM": 67.8
  },
  {
    "molecule": "COC(=O)C1=CCC(C(C)CCC2OC2(C)C)CC1 (stereo not drawn) [Metabolite 5]",
    "IC50, µM": 16.8
  },
  {
    "molecule": "CC(C)=CCCC(C)(O)C1CCC(C)CC1 (stereo not drawn) [Metabolite 4, 2,3-dihydro-α-bisabolol]",
    "IC50, µM": 35.3
  },
  {
    "molecule": "CC(C)=CCC[C@](C)(O)[C@@H]1CC=C(C(=O)O)CC1 [Metabolite 3, Hamanasic acid A]",
    "IC50, µM": 28.1
  }
]

----------
test-system: AChE (Homo sapiens, UniProt P22303)
Sequence (P22303 32-614): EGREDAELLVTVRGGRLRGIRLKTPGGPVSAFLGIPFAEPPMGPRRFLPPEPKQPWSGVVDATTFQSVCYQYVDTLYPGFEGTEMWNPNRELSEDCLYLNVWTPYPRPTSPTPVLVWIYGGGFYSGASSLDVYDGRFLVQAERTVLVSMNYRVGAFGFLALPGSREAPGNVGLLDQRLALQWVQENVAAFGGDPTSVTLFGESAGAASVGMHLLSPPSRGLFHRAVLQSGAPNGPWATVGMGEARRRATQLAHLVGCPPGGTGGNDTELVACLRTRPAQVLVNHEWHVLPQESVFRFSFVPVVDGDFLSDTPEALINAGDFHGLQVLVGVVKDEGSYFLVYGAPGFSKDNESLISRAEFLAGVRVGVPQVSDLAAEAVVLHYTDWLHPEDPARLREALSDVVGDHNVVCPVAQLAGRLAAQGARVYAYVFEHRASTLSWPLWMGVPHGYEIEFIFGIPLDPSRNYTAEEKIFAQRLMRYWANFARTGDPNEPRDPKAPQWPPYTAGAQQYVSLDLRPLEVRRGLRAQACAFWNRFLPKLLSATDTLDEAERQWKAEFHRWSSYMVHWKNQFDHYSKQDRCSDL
experiment-notes: biochemical
run-parameters: mean ± SD, n = 3; read-out: AChE inhibition IC50
pIC50: −log10 of the molar value.
observed-property: pIC50

[
  {
    "molecule": "CC(C)=CCC[C@](C)(O)[C@@H]1CC=C(C(=O)O)CC1 [Metabolite 3, Hamanasic acid A]",
    "measured": "< 4.00"
  },
  {
    "molecule": "CC(C)(O)C(O)CCC(C)(O)C1CC=C(CO)CC1 (stereo not drawn) [Metabolite 6, 10β,11,15-trihydroxy-α-bisabolol]",
    "measured": "< 4.00"
  },
  {
    "molecule": "CC(C)=CCCC(C)(O)C1CCC(C)CC1 (stereo not drawn) [Metabolite 4, 2,3-dihydro-α-bisabolol]",
    "measured": "< 4.00"
  },
  {
    "molecule": "CC1=CCC(C(C)(O)CCC(O)C(C)(C)O)CC1 (stereo not drawn) [Metabolite 2, 10β,11-dihydroxy-α-bisabolol]",
    "measured": 4.89
  }
]

Sourced from paper PMC12297533
